Assay: Antiproliferative activity against H661 cells
Assay type: functional, cell-based
Conditions: Homo sapiens, NCI-H661
Here the recorded IC50 is given for each entry.
Quick reminder: number only, in nM, skip the unit.

CC(/C=C/C(=O)Nc1ccccc1N)=C\C1(C)CCc2ccccc2C1=O (centres undefined) : 5000
CC(/C=C/C(=O)NO)=C\C1(C)Cc2cc(F)ccc2C1=O (centres undefined) : 1500
CC(/C=C/C(=O)Nc1ccccc1N)=C\C1(C)Cc2cc(F)ccc2C1=O (centres undefined) : 7000
CC(/C=C/C(=O)NO)=C\C1(C)Cc2ccccc2C1=O (centres undefined) : 1650
CC(/C=C/C(=O)Nc1ccccc1N)=C\C1(C)Cc2cc(N(C)C)ccc2C1=O (centres undefined) : 2500
CC(/C=C/C(=O)NO)=C\C1(C)CCc2ccccc2C1=O (centres undefined) : 3000

Here is the next item to consider.
Item under review: CC(/C=C/C(=O)Nc1ccccc1N)=C\C1(C)Cc2ccccc2C1=O (centres undefined) . Reported IC50?
3000

----------
System: HCT-116
Test: Antiproliferative activity against HCT116 cells
Assay type: functional, cell-based
Settings: Homo sapiens
measure: pIC50
Please express pIC50 as -log10 of the molar concentration.

# pIC50 lookup, item `CC(/C=C/C(=O)NO)=C\[C@@H](C)C(=O)c1ccc(N(C)C)cc1`
8.89
